Values were extracted from patent US20240317847A1.

TESTED_SYSTEM: T1, human IL-11 (Invigate, e.g., lot #C121021-19) (human, UniProt P20809 22-199)
T1 construct: Bought protein; also called hIL-11; hIL11
T1 sequence: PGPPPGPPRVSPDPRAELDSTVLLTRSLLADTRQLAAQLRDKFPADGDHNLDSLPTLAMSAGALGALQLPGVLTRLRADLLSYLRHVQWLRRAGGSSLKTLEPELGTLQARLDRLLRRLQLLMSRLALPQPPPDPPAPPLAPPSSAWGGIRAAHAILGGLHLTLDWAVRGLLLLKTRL
METHOD: SPR, Biacore 8K; antibody captured on anti-human IgG Fc chip, IL-11 analyte 0-50 nM, 1:1 fit
Description: Antibody binding affinity to hIL-11 (Invigate, Germany, e.g., lot #C121021-19) and mIL-11 (Invigate, Germany, e.g., lot #C210819-09) was detected using Biacore 8K. Each antibody was captured on an anti-human IgG Fc antibody immobilized CM5 sensor chip (GE). hIL-11 and mIL-11 at different concentrations (0, 5, 15.82 and 50 nM) in 1×HBS-EP+ (pH 7.4) (GE healthcare) were injected over the sensor chip at a flow rate of 30 μL/min for an association phase of 120 s, followed by 200 s dissociation phase. […]
QUANTITY_KIND: pKd
Lab note: report pKd as minus log10 of the concentration in molar units, number only.

-- ask Given the entry TPP-31282 (antibody, human IgG4, V domains shown, consecutive numbering; also called VL-D53N) VH: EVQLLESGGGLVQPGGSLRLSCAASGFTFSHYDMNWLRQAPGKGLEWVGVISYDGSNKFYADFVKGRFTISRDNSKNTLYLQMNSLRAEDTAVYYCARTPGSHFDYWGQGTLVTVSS VL: QSVLTQPPSASGTPGQRVTISCSGSSSNIGNNAVNWYQQLPGTAPKLLIYYDNLLPSGVPDRFSGSKSGTSASLAISGLRSEDEADYYCSAWDDSLNGVVFGGGTKLTVL , report its measured pKd.
-- reply 7.89

-- ask Repeat with TPP-31287 (antibody, human IgG4, V domains shown, consecutive numbering; also called VH-L5V) VH: EVQLVESGGGLVQPGGSLRLSCAASGFTFSHYDMNWLRQAPGKGLEWVGVISYDGSNKFYADFVKGRFTISRDNSKNTLYLQMNSLRAEDTAVYYCARTPGSHFDYWGQGTLVTVSS VL: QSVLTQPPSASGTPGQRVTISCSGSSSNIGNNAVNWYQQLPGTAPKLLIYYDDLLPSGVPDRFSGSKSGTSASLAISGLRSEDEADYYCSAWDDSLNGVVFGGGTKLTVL
-- reply 8.03

-- ask Note, next up: TPP-31292 (antibody, human IgG4, V domains shown, consecutive numbering; also called VH-N35H) VH: EVQLLESGGGLVQPGGSLRLSCAASGFTFSHYDMHWLRQAPGKGLEWVGVISYDGSNKFYADFVKGRFTISRDNSKNTLYLQMNSLRAEDTAVYYCARTPGSHFDYWGQGTLVTVSS VL: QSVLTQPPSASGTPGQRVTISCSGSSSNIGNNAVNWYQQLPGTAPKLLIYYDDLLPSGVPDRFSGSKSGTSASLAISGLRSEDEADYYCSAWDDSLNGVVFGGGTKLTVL
-- reply 7.96

-- ask Please give the result for TPP-31288 (antibody, human IgG4, V domains shown, consecutive numbering; also called VH-L11V) VH: EVQLLESGGGVVQPGGSLRLSCAASGFTFSHYDMNWLRQAPGKGLEWVGVISYDGSNKFYADFVKGRFTISRDNSKNTLYLQMNSLRAEDTAVYYCARTPGSHFDYWGQGTLVTVSS VL: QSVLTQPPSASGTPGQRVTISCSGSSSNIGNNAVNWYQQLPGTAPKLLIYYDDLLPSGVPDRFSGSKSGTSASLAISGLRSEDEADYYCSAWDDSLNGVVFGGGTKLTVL too.
-- reply 7.96

-- ask Cool, now TPP-31305 (antibody, human IgG4, V domains shown, consecutive numbering; also called VH-G55A / VL-N97Q) VH: EVQLLESGGGLVQPGGSLRLSCAASGFTFSHYDMNWLRQAPGKGLEWVGVISYDASNKFYADFVKGRFTISRDNSKNTLYLQMNSLRAEDTAVYYCARTPGSHFDYWGQGTLVTVSS VL: QSVLTQPPSASGTPGQRVTISCSGSSSNIGNNAVNWYQQLPGTAPKLLIYYDDLLPSGVPDRFSGSKSGTSASLAISGLRSEDEADYYCSAWDDSLQGVVFGGGTKLTVL
-- reply 7.82

-- ask Now give it for TPP-31299 (antibody, human IgG4, V domains shown, consecutive numbering; also called VL-G98A) VH: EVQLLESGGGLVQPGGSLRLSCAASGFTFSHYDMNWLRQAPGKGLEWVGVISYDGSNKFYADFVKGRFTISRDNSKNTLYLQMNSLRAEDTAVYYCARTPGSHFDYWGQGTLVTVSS VL: QSVLTQPPSASGTPGQRVTISCSGSSSNIGNNAVNWYQQLPGTAPKLLIYYDDLLPSGVPDRFSGSKSGTSASLAISGLRSEDEADYYCSAWDDSLNAVVFGGGTKLTVL too.
-- reply 7.74

-- ask Same question, TPP-18087 (antibody, mouse IgG1, V domains shown, mIgG1, Lambda) VH: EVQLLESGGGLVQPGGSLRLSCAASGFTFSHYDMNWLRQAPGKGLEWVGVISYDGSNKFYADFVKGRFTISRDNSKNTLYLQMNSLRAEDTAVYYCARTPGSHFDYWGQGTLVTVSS VL: QSVLTQPPSASGTPGQRVTISCSGSSSNIGNNAVNWYQQLPGTAPKLLIYYDDLLPSGVPDRFSGSKSGTSASLAISGLRSEDEADYYCSAWDDSLNGVVFGGGTKLTVLG this time
-- reply 8.28

-- ask And TPP-31310 (antibody, human IgG4, V domains shown, consecutive numbering; also called VH-G55S / VL-N97S) VH: EVQLLESGGGLVQPGGSLRLSCAASGFTFSHYDMNWLRQAPGKGLEWVGVISYDSSNKFYADFVKGRFTISRDNSKNTLYLQMNSLRAEDTAVYYCARTPGSHFDYWGQGTLVTVSS VL: QSVLTQPPSASGTPGQRVTISCSGSSSNIGNNAVNWYQQLPGTAPKLLIYYDDLLPSGVPDRFSGSKSGTSASLAISGLRSEDEADYYCSAWDDSLSGVVFGGGTKLTVL ?
-- reply 7.40

-- ask Now consider TPP-31286 (antibody, human IgG4, V domains shown, consecutive numbering; also called VH-E1Q) VH: QVQLLESGGGLVQPGGSLRLSCAASGFTFSHYDMNWLRQAPGKGLEWVGVISYDGSNKFYADFVKGRFTISRDNSKNTLYLQMNSLRAEDTAVYYCARTPGSHFDYWGQGTLVTVSS VL: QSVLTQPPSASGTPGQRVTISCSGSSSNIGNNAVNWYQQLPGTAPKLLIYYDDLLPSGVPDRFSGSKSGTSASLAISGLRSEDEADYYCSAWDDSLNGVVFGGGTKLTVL and answer again.
-- reply 8.04

-- ask Next: TPP-31301 (antibody, human IgG4, V domains shown, consecutive numbering; also called VH-D54E / VL-N97Q) VH: EVQLLESGGGLVQPGGSLRLSCAASGFTFSHYDMNWLRQAPGKGLEWVGVISYEGSNKFYADFVKGRFTISRDNSKNTLYLQMNSLRAEDTAVYYCARTPGSHFDYWGQGTLVTVSS VL: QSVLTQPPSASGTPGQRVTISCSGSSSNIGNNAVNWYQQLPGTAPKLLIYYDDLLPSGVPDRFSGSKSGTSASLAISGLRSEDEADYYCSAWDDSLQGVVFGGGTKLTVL
-- reply 8.44
